Recorded values, source patent US20230235012A1.

Experimental Target: T1, human CTLA-4, full-length, expressed on transfected Expi293 cells (human, UniProt P16410 36-223)
T1 construct: whole, on cells
T1 sequence (P16410 36-223): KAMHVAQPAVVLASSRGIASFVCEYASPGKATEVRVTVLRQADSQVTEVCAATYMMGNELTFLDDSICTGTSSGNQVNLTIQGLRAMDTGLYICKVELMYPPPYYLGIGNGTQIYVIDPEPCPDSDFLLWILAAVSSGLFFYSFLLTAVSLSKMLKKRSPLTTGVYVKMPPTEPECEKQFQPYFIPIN
Assay: flow cytometry, 100 nM, Expi293 cells with human CTLA-4
Known MFI of a selection of binders
Reply with just the number (in MFI).

Answered cases to consult:
Lookup: Which MFI value is on record for variant ICOSL IgV-Fc fusion N52S/N57L/Q100S (Fc fusion) DTQEKEVRAMVGSDVELSCACPEGSRFDLNDVYVYWQTSESKTVVTYHIPQSSSLELVDSRYRNRALMSPAGMLRGDFSLRLFNVTPQDEQKFHCLVLSSSLGFQEVLSVEVTLHVAANFSVGSGGGGSEPKSSDKTHTCPPCPAPEAEGAPSVFLFPPKPKDTLMISRTPEVTCVVVDVSHEDPEVKFNWYVDGVEVHNAKTKPREEQYNSTYRVVSVLTVLHQDWLNGKEYKCKVSNKALPAPIEKTISKAKGQPREPQVYTLPPSREEMTKNQVSLTCLVKGFYPSDIAVEWESNGQPENNYKTTPPVLDSDGSFFLYSKLTVDKSRWQQGNVFSCSVMHEALHNHYTQKSLSLSPG ?
Found: 197000

Lookup: Which MFI value is on record for variant ICOSL IgV-Fc fusion N52R/N57F/Q100N (Fc fusion) DTQEKEVRAMVGSDVELSCACPEGSRFDLNDVYVYWQTSESKTVVTYHIPQRSSLEFVDSRYRNRALMSPAGMLRGDFSLRLFNVTPQDEQKFHCLVLSNSLGFQEVLSVEVTLHVAANFSVGSGGGGSEPKSSDKTHTCPPCPAPEAEGAPSVFLFPPKPKDTLMISRTPEVTCVVVDVSHEDPEVKFNWYVDGVEVHNAKTKPREEQYNSTYRVVSVLTVLHQDWLNGKEYKCKVSNKALPAPIEKTISKAKGQPREPQVYTLPPSREEMTKNQVSLTCLVKGFYPSDIAVEWESNGQPENNYKTTPPVLDSDGSFFLYSKLTVDKSRWQQGNVFSCSVMHEALHNHYTQKSLSLSPG ?
Found: 233000

Lookup: Which MFI value is on record for variant ICOSL IgV-Fc fusion N52R/N57L/Q100S (Fc fusion) DTQEKEVRAMVGSDVELSCACPEGSRFDLNDVYVYWQTSESKTVVTYHIPQRSSLELVDSRYRNRALMSPAGMLRGDFSLRLFNVTPQDEQKFHCLVLSSSLGFQEVLSVEVTLHVAANFSVGSGGGGSEPKSSDKTHTCPPCPAPEAEGAPSVFLFPPKPKDTLMISRTPEVTCVVVDVSHEDPEVKFNWYVDGVEVHNAKTKPREEQYNSTYRVVSVLTVLHQDWLNGKEYKCKVSNKALPAPIEKTISKAKGQPREPQVYTLPPSREEMTKNQVSLTCLVKGFYPSDIAVEWESNGQPENNYKTTPPVLDSDGSFFLYSKLTVDKSRWQQGNVFSCSVMHEALHNHYTQKSLSLSPG ?
Found: 289000

---
Lookup: Which MFI value is on record for variant ICOSL IgV-Fc fusion N52S/N57Y/Q100M (Fc fusion) DTQEKEVRAMVGSDVELSCACPEGSRFDLNDVYVYWQTSESKTVVTYHIPQSSSLEYVDSRYRNRALMSPAGMLRGDFSLRLFNVTPQDEQKFHCLVLSMSLGFQEVLSVEVTLHVAANFSVGSGGGGSEPKSSDKTHTCPPCPAPEAEGAPSVFLFPPKPKDTLMISRTPEVTCVVVDVSHEDPEVKFNWYVDGVEVHNAKTKPREEQYNSTYRVVSVLTVLHQDWLNGKEYKCKVSNKALPAPIEKTISKAKGQPREPQVYTLPPSREEMTKNQVSLTCLVKGFYPSDIAVEWESNGQPENNYKTTPPVLDSDGSFFLYSKLTVDKSRWQQGNVFSCSVMHEALHNHYTQKSLSLSPG ?
Found: 395000

Lookup: Which MFI value is on record for variant ICOSL IgV-Fc fusion N52A/N57F/Q100S (Fc fusion) DTQEKEVRAMVGSDVELSCACPEGSRFDLNDVYVYWQTSESKTVVTYHIPQASSLEFVDSRYRNRALMSPAGMLRGDFSLRLFNVTPQDEQKFHCLVLSSSLGFQEVLSVEVTLHVAANFSVGSGGGGSEPKSSDKTHTCPPCPAPEAEGAPSVFLFPPKPKDTLMISRTPEVTCVVVDVSHEDPEVKFNWYVDGVEVHNAKTKPREEQYNSTYRVVSVLTVLHQDWLNGKEYKCKVSNKALPAPIEKTISKAKGQPREPQVYTLPPSREEMTKNQVSLTCLVKGFYPSDIAVEWESNGQPENNYKTTPPVLDSDGSFFLYSKLTVDKSRWQQGNVFSCSVMHEALHNHYTQKSLSLSPG ?
Found: 255000

Lookup: Which MFI value is on record for variant ICOSL IgV-Fc fusion N52G/N57V/Q100G (Fc fusion) DTQEKEVRAMVGSDVELSCACPEGSRFDLNDVYVYWQTSESKTVVTYHIPQGSSLEVVDSRYRNRALMSPAGMLRGDFSLRLFNVTPQDEQKFHCLVLSGSLGFQEVLSVEVTLHVAANFSVGSGGGGSEPKSSDKTHTCPPCPAPEAEGAPSVFLFPPKPKDTLMISRTPEVTCVVVDVSHEDPEVKFNWYVDGVEVHNAKTKPREEQYNSTYRVVSVLTVLHQDWLNGKEYKCKVSNKALPAPIEKTISKAKGQPREPQVYTLPPSREEMTKNQVSLTCLVKGFYPSDIAVEWESNGQPENNYKTTPPVLDSDGSFFLYSKLTVDKSRWQQGNVFSCSVMHEALHNHYTQKSLSLSPG ?
Found: 14700

Lookup: Which MFI value is on record for variant ICOSL IgV-Fc fusion N52V/N57L/Q100A (Fc fusion) DTQEKEVRAMVGSDVELSCACPEGSRFDLNDVYVYWQTSESKTVVTYHIPQVSSLELVDSRYRNRALMSPAGMLRGDFSLRLFNVTPQDEQKFHCLVLSASLGFQEVLSVEVTLHVAANFSVGSGGGGSEPKSSDKTHTCPPCPAPEAEGAPSVFLFPPKPKDTLMISRTPEVTCVVVDVSHEDPEVKFNWYVDGVEVHNAKTKPREEQYNSTYRVVSVLTVLHQDWLNGKEYKCKVSNKALPAPIEKTISKAKGQPREPQVYTLPPSREEMTKNQVSLTCLVKGFYPSDIAVEWESNGQPENNYKTTPPVLDSDGSFFLYSKLTVDKSRWQQGNVFSCSVMHEALHNHYTQKSLSLSPG ?
Found: 252000
